System name: Neutrophil elastase (Homo sapiens, UniProt P08246)
Sequence (P08246 whole entry): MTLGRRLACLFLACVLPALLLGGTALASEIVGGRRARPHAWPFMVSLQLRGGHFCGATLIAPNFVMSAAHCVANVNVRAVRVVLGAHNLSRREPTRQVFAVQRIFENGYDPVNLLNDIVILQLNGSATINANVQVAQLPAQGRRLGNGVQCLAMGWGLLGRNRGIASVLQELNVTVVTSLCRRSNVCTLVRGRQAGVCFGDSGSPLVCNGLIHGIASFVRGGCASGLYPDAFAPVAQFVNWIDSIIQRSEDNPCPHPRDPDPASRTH
Assay explanation: Inhibition of human neutrophil elastase
pIC50: −log10 of the molar value.
Value kind: pIC50

COc1ccc(Cl)cc1CC1CNC(=O)CN(S(=O)(=O)c2ccc(Cl)cc2)C1=O (racemic)
< 5.00

---

System name: Chymase (Homo sapiens, UniProt P23946)
Sequence (P23946 whole entry): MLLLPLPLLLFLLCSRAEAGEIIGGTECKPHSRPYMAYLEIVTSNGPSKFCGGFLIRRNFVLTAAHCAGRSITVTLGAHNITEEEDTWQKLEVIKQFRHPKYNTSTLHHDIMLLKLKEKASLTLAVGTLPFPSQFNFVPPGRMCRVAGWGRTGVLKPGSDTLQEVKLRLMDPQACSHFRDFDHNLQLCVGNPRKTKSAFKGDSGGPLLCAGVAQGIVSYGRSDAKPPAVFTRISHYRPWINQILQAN
Assay explanation: Inhibition of human recombinant chymase
Reported values of IC50 for individual entries
Value kind: IC50

O=C1CN(S(=O)(=O)c2ccc(Cl)cc2)C(=O)C(Cc2ccncc2)CN1 (racemic)
> 10 µM
CC(C)C[C@H](NC(=O)[C@@H](NC(=O)N[C@@H](Cc1ccccc1)C(=O)O)C1CCN=C(N)N1)C(=O)N[C@H](C=O)Cc1ccccc1 (stereo not given in full)
0.043 µM
O=C1CN(S(=O)(=O)c2ccc(Cl)cc2)C(=O)C(CC2CCCCC2)CN1 (racemic)
> 10 µM
O=C1CN(S(=O)(=O)c2ccc(Cl)cc2)C(=O)C(Cc2ccc3ccccc3c2)CN1 (racemic)
> 10 µM
O=C1CN(S(=O)(=O)c2ccc(Cl)cc2)C(=O)C(Cc2cccnc2)CN1 (racemic)
> 10 µM
